# target_system: T1, ECF02_2817
# T1 chain: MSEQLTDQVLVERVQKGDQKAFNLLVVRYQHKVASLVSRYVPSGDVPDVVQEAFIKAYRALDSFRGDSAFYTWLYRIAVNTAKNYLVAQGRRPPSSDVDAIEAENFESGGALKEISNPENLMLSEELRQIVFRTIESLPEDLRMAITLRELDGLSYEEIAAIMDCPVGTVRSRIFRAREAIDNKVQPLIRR
Let's look at some binders and their measured fold repression.
// response body must contain only the number

// below: answered binders
binder	assay_value
AS11_987 (protein) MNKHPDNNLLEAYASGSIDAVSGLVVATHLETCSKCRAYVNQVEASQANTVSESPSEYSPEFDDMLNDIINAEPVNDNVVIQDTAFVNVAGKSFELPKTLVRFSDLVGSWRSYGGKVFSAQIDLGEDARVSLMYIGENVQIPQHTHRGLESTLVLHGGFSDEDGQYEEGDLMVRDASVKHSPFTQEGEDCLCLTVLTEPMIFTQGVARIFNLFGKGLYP	3.07
AS16_973 (protein) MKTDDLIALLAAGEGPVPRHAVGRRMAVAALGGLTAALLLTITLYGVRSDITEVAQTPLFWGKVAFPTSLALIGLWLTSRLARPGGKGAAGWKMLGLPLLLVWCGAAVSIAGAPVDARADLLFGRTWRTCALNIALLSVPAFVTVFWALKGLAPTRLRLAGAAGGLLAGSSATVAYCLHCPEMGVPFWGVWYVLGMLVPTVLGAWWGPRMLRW	0.448
AS37_2513 (protein) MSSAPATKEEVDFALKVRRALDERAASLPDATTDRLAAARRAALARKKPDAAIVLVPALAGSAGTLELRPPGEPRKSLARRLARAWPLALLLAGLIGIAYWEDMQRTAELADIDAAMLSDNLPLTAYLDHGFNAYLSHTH	4.08
AS15_524 (protein) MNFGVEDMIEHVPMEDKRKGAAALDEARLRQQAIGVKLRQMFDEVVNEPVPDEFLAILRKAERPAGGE	2.65
AS03_1244 (protein) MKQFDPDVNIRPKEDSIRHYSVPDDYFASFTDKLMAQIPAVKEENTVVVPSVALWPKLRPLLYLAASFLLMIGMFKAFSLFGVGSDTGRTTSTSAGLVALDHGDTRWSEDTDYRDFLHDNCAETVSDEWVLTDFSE	1.96

Ask | I am curious: what fold repression value has been reported for AS35_3582 (protein) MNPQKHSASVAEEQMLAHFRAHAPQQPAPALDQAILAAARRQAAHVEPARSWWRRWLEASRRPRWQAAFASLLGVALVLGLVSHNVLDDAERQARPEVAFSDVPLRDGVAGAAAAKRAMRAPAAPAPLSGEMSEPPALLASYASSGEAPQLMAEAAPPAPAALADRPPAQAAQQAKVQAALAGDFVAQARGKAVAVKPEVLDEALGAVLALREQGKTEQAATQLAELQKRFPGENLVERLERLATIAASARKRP ?
Reply | 6.36

Ask | I am curious: what fold repression value has been reported for AS27_4265 (protein) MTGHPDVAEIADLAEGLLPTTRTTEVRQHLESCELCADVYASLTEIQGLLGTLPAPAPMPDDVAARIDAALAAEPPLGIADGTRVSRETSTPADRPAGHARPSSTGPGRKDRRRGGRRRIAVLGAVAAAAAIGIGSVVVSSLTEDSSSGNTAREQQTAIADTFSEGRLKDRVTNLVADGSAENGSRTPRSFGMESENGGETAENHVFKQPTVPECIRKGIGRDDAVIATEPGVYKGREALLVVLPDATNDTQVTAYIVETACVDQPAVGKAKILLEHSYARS ?
Reply | 1.4

Ask | I am curious: what fold repression value has been reported for AS22_4450 (protein) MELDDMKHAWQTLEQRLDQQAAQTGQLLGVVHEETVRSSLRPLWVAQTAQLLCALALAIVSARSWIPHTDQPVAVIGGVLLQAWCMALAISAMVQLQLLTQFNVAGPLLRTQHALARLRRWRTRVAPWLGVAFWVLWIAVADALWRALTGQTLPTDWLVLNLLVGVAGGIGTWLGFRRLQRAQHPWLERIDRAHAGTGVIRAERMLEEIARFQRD ?
Reply | 1.98

Ask | I am curious: what fold repression value has been reported for AS16_3622 (protein) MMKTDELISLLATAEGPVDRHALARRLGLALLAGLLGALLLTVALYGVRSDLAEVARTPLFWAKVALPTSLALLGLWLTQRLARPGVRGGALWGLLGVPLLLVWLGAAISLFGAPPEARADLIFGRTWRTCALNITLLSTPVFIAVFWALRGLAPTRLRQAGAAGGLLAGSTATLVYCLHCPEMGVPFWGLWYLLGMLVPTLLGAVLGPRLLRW ?
Reply | 1.37

Ask | I am curious: what fold repression value has been reported for AS30_35 (protein) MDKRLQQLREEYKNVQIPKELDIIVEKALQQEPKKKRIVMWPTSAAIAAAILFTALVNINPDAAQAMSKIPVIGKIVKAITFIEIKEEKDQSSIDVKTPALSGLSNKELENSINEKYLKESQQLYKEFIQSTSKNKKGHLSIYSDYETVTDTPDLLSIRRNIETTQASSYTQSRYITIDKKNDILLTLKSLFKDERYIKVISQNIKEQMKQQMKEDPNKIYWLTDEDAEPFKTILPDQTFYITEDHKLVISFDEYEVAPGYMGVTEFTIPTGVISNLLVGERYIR ?
Reply | 1.56

Ask | I am curious: what fold repression value has been reported for AS15_436 (protein) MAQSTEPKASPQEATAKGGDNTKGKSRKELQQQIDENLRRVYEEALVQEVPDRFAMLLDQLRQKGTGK ?
Reply | 1.58

Taken from paper PMC3817407.
